meta.source: PubChem BioAssay AID256

test system: CD2F1 mice, L1210 leukemia ip, survival T/C; assay: NCI In Vivo Anticancer Drug Screen. Data for tumor model L1210 Leukemia (intraperitoneal) in CD2F1 (CDF1) mice; conditions: endpoint: mean survival time; dose: 25.0 mg/kg/injection; schedule: Q04DX003 (ip); vehicle: saline with Tween-80; higher = longer survival
Toxic doses and inconclusive results are not listed.
Property Label: T/C

Sample records with T/C:
> print(dat)
                               query.smiles            result
1                  Cc1cc(C)[nH]c(=S)n1.[Pt]   98 % of control
2                  O=c1cc(CBr)c2ccccc2[nH]1  103 % of control
3  CC1(C)N=C(N)N=C(N)N1c1ccc(Cl)c(C(F)(F)F)c1  109 % of control
4                         CCCCCCCCCCCCN(C)C   97 % of control
5  CCCCCCCCCCCCCCCC(=O)N(C/C=C/CN(CCCN(C)C)C(=O)CCCCCCCCCCCCCCC)CCCN(C)C   98 % of control

Attention now turns to another entry.
stdin: Query: T/C; subject: `Cc1cc(C)c(CN)cc1CN`
stdout: 91 % of control
